What C. albicans Growth Inhibition (%) in the Presence of Laminarin 200 µg/mL was measured for each of the following?
- Test system: Candida albicans SC5314
- Test protocol: CFU assay, neutralization of candidacidal activity by laminarin
- Type: cell-based
- Details: peptide at its minimal candidacidal concentration; laminarin 200 µg/mL
Peptide text beside a SMILES is read from it.
Answers are plain numbers, in %.

compound="CSCC[C@H](NC(=O)[C@@H](NC(=O)[C@@H](NC(=O)[C@H](CCCCN)NC(=O)[C@H](C)N)C(C)C)[C@@H](C)O)C(=O)N[C@H](C(=O)N[C@@H](CS)C(=O)N[C@@H](CO)C(=O)N[C@@H](C)C(=O)N[C@@H](CO)C(=O)O)[C@@H](C)O [A10S (KP)] (H-AKVTMTCSAS-OH)" recorded_result=1.80

Hey, can you go through the list below and give me C. albicans Growth Inhibition (%) in the Presence of Laminarin 200 µg/mL for every item?
1. CSCC[C@H](NC(=O)[C@@H](NC(=O)[C@@H](NC(=O)[C@H](CCCCN)NC(=O)[C@@H](N)CO)C(C)C)[C@@H](C)O)C(=O)N[C@H](C(=O)N[C@@H](CS)C(=O)N[C@@H](CO)C(=O)N[C@@H](C)C(=O)N[C@@H](CO)C(=O)O)[C@@H](C)O [Peptide S10S] (H-SKVTMTCSAS-OH)
2. CSCC[C@H](NC(=O)[C@@H](NC(=O)[C@@H](NC(=O)[C@H](CCCCN)NC(=O)[C@@H]1CCCN1)C(C)C)[C@@H](C)O)C(=O)N[C@H](C(=O)N[C@@H](CS)C(=O)N[C@@H](CO)C(=O)N[C@@H](C)C(=O)N[C@@H](CO)C(=O)O)[C@@H](C)O [Peptide P10S] (H-PKVTMTCSAS-OH)
3. CSCC[C@H](NC(=O)[C@@H](NC(=O)[C@@H](NC(=O)[C@@H](N)CCCCN)C(C)C)[C@@H](C)O)C(=O)N[C@H](C(=O)N[C@@H](CS)C(=O)N[C@@H](CO)C(=O)N[C@@H](C)C(=O)N[C@@H](CO)C(=O)O)[C@@H](C)O [Peptide K9S] (H-KVTMTCSAS-OH)

Result:
1. 60.73
2. 3.10
3. 0.68

###

What Cell viability (%) 10 µM was measured for each of the following?
- System: LLC-MK2 cells
- Details: 24 h incubation, peptide 10 µM, resazurin assay
Peptide text beside a SMILES is read from it.
One number for each entry, in %.

Solved entries:
compound="CSCC[C@H](NC(=O)[C@@H](NC(=O)[C@@H](NC(=O)[C@@H](N)CCCCN)C(C)C)[C@@H](C)O)C(=O)N[C@H](C(=O)N[C@@H](CS)C(=O)N[C@@H](CO)C(=O)N[C@@H](C)C(=O)N[C@@H](CO)C(=O)O)[C@@H](C)O [Peptide K9S] (H-KVTMTCSAS-OH)" units_symbol=% recorded_result=100
compound="CSCC[C@H](NC(=O)[C@@H](NC(=O)[C@@H](NC(=O)[C@H](CCCCN)NC(=O)[C@@H]1CCCN1)C(C)C)[C@@H](C)O)C(=O)N[C@H](C(=O)N[C@@H](CS)C(=O)N[C@@H](CO)C(=O)N[C@@H](C)C(=O)N[C@@H](CO)C(=O)O)[C@@H](C)O [Peptide P10S] (H-PKVTMTCSAS-OH)" units_symbol=% recorded_result=93.25

Query: GET /values?readout=Cell viability (%) 10 µM&item= CSCC[C@H](NC(=O)[C@@H](NC(=O)[C@@H](NC(=O)[C@H](CCCCN)NC(=O)[C@@H](N)CCCCN)C(C)C)[C@@H](C)O)C(=O)N[C@H](C(=O)N[C@@H](CS)C(=O)N[C@@H](CO)C(=O)N[C@@H](C)C(=O)N[C@@H](CO)C(=O)O)[C@@H](C)O [Peptide K10S] (H-KKVTMTCSAS-OH)
Result: 93.74

###

- Test system: Candida albicans SC5314
- Test protocol: CFU assay, neutralization of candidacidal activity by laminarin
- Format: cell-based
- Details: peptide at its minimal candidacidal concentration; laminarin 100 µg/mL
Peptide text beside a SMILES is read from it.
What C. albicans Growth Inhibition (%) in the Presence of Laminarin 100 µg/mL was measured for each of the following?
Give bare numbers, in %.

compound="CSCC[C@H](NC(=O)[C@@H](NC(=O)[C@@H](NC(=O)[C@@H](N)CCCCN)C(C)C)[C@@H](C)O)C(=O)N[C@H](C(=O)N[C@@H](CS)C(=O)N[C@@H](CO)C(=O)N[C@@H](C)C(=O)N[C@@H](CO)C(=O)O)[C@@H](C)O [Peptide K9S] (H-KVTMTCSAS-OH)" recorded_result=31.09

Query: GET /values?readout=C. albicans Growth Inhibition (%) in the Presence of Laminarin 100 µg/mL&item= CSCC[C@H](NC(=O)[C@@H](NC(=O)[C@@H](NC(=O)[C@H](CCCCN)NC(=O)[C@@H](N)CCCCN)C(C)C)[C@@H](C)O)C(=O)N[C@H](C(=O)N[C@@H](CS)C(=O)N[C@@H](CO)C(=O)N[C@@H](C)C(=O)N[C@@H](CO)C(=O)O)[C@@H](C)O [Peptide K10S] (H-KKVTMTCSAS-OH)
Result: 1.07

###

What Cell viability (%) 25 µM was measured for each of the following?
- System: LLC-MK2 cells
- Details: 24 h incubation, peptide 25 µM, resazurin assay
Peptide text beside a SMILES is read from it.
One number for each entry, in %.

Hey, can you go through the list below and give me Cell viability (%) 25 µM for every item?
1. CSCC[C@H](NC(=O)[C@@H](NC(=O)[C@@H](NC(=O)[C@H](CCCCN)NC(=O)[C@@H]1CCCN1)C(C)C)[C@@H](C)O)C(=O)N[C@H](C(=O)N[C@@H](CS)C(=O)N[C@@H](CO)C(=O)N[C@@H](C)C(=O)N[C@@H](CO)C(=O)O)[C@@H](C)O [Peptide P10S] (H-PKVTMTCSAS-OH)
2. CSCC[C@H](NC(=O)[C@@H](NC(=O)[C@@H](NC(=O)[C@H](CCCCN)NC(=O)[C@@H](N)CCCCN)C(C)C)[C@@H](C)O)C(=O)N[C@H](C(=O)N[C@@H](CS)C(=O)N[C@@H](CO)C(=O)N[C@@H](C)C(=O)N[C@@H](CO)C(=O)O)[C@@H](C)O [Peptide K10S] (H-KKVTMTCSAS-OH)

Result:
1. 90.20
2. 100

###

What Cell viability (%) 25 µM was measured for each of the following?
- Tested on: LLC-MK2 cells
- Details: 24 h incubation, peptide 25 µM, resazurin assay
Peptide text beside a SMILES is read from it.
Answers are plain numbers, in %.

compound="CSCC[C@H](NC(=O)[C@@H](NC(=O)[C@@H](NC(=O)[C@@H](N)CCCCN)C(C)C)[C@@H](C)O)C(=O)N[C@H](C(=O)N[C@@H](CS)C(=O)N[C@@H](CO)C(=O)N[C@@H](C)C(=O)N[C@@H](CO)C(=O)O)[C@@H](C)O [Peptide K9S] (H-KVTMTCSAS-OH)" reported_endpoint="Cell viability (%) 25 µM" units_symbol=% recorded_result=98.55
compound="CSCC[C@H](NC(=O)[C@@H](NC(=O)[C@@H](NC(=O)[C@H](CCCCN)NC(=O)[C@H](C)N)C(C)C)[C@@H](C)O)C(=O)N[C@H](C(=O)N[C@@H](CS)C(=O)N[C@@H](CO)C(=O)N[C@@H](C)C(=O)N[C@@H](CO)C(=O)O)[C@@H](C)O [A10S (KP)] (H-AKVTMTCSAS-OH)" reported_endpoint="Cell viability (%) 25 µM" units_symbol=% recorded_result=88.20

Moving on to the next compound.
Query: GET /values?readout=Cell viability (%) 25 µM&item= CSCC[C@H](NC(=O)[C@@H](NC(=O)[C@@H](NC(=O)[C@H](CCCCN)NC(=O)[C@@H](N)Cc1c[nH]cn1)C(C)C)[C@@H](C)O)C(=O)N[C@H](C(=O)N[C@@H](CS)C(=O)N[C@@H](CO)C(=O)N[C@@H](C)C(=O)N[C@@H](CO)C(=O)O)[C@@H](C)O [Peptide H10S] (H-HKVTMTCSAS-OH)
Result: 94.90

###

What C. albicans Growth Inhibition (%) in the Presence of Laminarin 100 µg/mL was measured for each of the following?
- Tested on: Candida albicans SC5314
- Test protocol: CFU assay, neutralization of candidacidal activity by laminarin
- Type: cell-based
- Details: peptide at its minimal candidacidal concentration; laminarin 100 µg/mL
Peptide text beside a SMILES is read from it.
Numbers only, in %.

molecule="CSCC[C@H](NC(=O)[C@@H](NC(=O)[C@@H](NC(=O)[C@H](CCCCN)NC(=O)[C@@H](N)CC(C)C)C(C)C)[C@@H](C)O)C(=O)N[C@H](C(=O)N[C@@H](CS)C(=O)N[C@@H](CO)C(=O)N[C@@H](C)C(=O)N[C@@H](CO)C(=O)O)[C@@H](C)O [Peptide L10S] (H-LKVTMTCSAS-OH)" recorded_result=0

Hey, can you go through the list below and give me C. albicans Growth Inhibition (%) in the Presence of Laminarin 100 µg/mL for every item?
1. CSCC[C@H](NC(=O)[C@@H](NC(=O)[C@@H](NC(=O)[C@H](CCCCN)NC(=O)[C@@H](N)CO)C(C)C)[C@@H](C)O)C(=O)N[C@H](C(=O)N[C@@H](CS)C(=O)N[C@@H](CO)C(=O)N[C@@H](C)C(=O)N[C@@H](CO)C(=O)O)[C@@H](C)O [Peptide S10S] (H-SKVTMTCSAS-OH)
2. CSCC[C@H](NC(=O)[C@@H](NC(=O)[C@@H](NC(=O)[C@H](CCCCN)NC(=O)[C@@H]1CCCN1)C(C)C)[C@@H](C)O)C(=O)N[C@H](C(=O)N[C@@H](CS)C(=O)N[C@@H](CO)C(=O)N[C@@H](C)C(=O)N[C@@H](CO)C(=O)O)[C@@H](C)O [Peptide P10S] (H-PKVTMTCSAS-OH)

Result:
1: 99.12; 2: 97.71
